Record form. Attribute: self-cleavage. Fill in for each entry.
B1: CPEB3 Ribozyme (parent)
chain: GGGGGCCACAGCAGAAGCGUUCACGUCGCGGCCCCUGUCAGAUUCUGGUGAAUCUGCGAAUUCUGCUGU

Variants of: B1
Assay: self-cleavage, relative activity (ratio to wild type); higher = more cleavage; co-transcriptional
One number for each entry.

G3A A51C; 0.413

Can you give me self-cleavage for all of these, one by one?
1. A10U G19C
2. G1U C12U
3. G11U C29G
4. C45A G68C
5. G37C C39U
6. G1A C9G
7. C7U A16U

Result ::
0.119
0.124
0.149
0.965
0.268
0.0894
0.617

Can you give me self-cleavage for all of these, one by one?
1. G25C C66A
2. C6U U62G
3. G4A C27U
4. C12U A59U
5. C7G G14U
6. G5A C12G
7. G41A U69C
8. A40U U43A

Result ::
0.134
0.783
0.19
0.822
0.0864
0.488
1.03
0.306

Can you give me self-cleavage for all of these, one by one?
1. C18U G68A
2. G41A C63U
3. C7A G30A
4. G19C C32A
5. C22U U69C
6. A16U C34A
7. G3A C33U

Result ::
[0.948, 0.59, 0.826, 0.146, 0.601, 0.4, 0.231]

Can you give me self-cleavage for all of these, one by one?
1. A8G G11A
2. C22U A60U

Result ::
1. 0.26
2. 0.137

Can you give me self-cleavage for all of these, one by one?
1. G3U G14C
2. U38A A42U
3. G31C G56C

Result ::
0.0411
0.817
0.139

Can you give me self-cleavage for all of these, one by one?
1. A42C U46G
2. C22G C32G
3. C29G U53C
4. G11A A52C
5. G1C G28U
6. G17A U21C

Result ::
[0.929, 0.139, 0.193, 0.865, 0.0985, 0.169]

Can you give me self-cleavage for all of these, one by one?
1. A60C U64G
2. A16C C57U

Result ::
[0.333, 0.107]

Can you give me self-cleavage for all of these, one by one?
1. G17A U67G
2. C12G A59G
3. C6G G56C

Result ::
0.542
0.802
0.199
